Data origin: paper PMC9315260

assay: MTT in vitro cytotoxicity assay, MARC145; format: cell-based, African green monkey; conditions: African green monkey, MARC145 cells (kidney cell line, subclone of MA-104), Table 3; MTT; mean ± S.D.
measure_name: IC50

The following compounds have reported results that may help.
molecule	IC50
O=C(Nc1ccccc1C(F)(F)F)c1ccccc1Nc1cccc(C(F)(F)F)c1	> 94 µM
CC(C)c1ccc(NC(=O)c2cccnc2Nc2cccc(C(F)(F)F)c2)cc1	> 100 µM
CC(C)c1ccc(NC(=O)c2ccccc2Nc2cccc(C(F)(F)F)c2)cc1	> 100 µM
O=C(Nc1ccccc1C(F)(F)F)c1cccnc1Nc1cccc(C(F)(F)F)c1	> 94 µM
O=C(Nc1ccc(C(F)(F)F)cc1)c1ccccc1Nc1cccc(C(F)(F)F)c1	11.9 µM

Parameter requested: IC50. Apply to each item below.
1. O=C(Nc1ccc(Cl)nc1)c1cccnc1Nc1cccc(C(F)(F)F)c1
2. O=C(Nc1ccccn1)c1ccccc1Nc1cccc(C(F)(F)F)c1
3. O=C(Nc1ccnc(Cl)c1)c1ccccc1Nc1cccc(C(F)(F)F)c1

Key:
["> 102 µM", "64.7 µM", "22.7 µM"]
